Molecular target: GH (GH stock solution) (UniProt P01241)
Sequence (P01241 27-217 limits assumed): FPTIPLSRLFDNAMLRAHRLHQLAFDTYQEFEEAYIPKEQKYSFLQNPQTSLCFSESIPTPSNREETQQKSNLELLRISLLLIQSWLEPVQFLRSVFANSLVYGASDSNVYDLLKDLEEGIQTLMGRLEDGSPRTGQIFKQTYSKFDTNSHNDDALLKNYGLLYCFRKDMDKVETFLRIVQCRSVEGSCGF
Assay: affinity chromatography, VHH-conjugated medium loaded with GH stock solution; medium in 0.1M NaOH 0h
experimental_readout: dynamic binding capacity at 10% breakthrough

M78 (Second round) (VHH, Entry already carries A57D; G134R; D102Y); tail DDDDK-SGGRGS-HHHHHH) VHH: QVQLVESGGGLAQAGGSLRLSCAVSGMPEFARAMGWFRQAPGKERELLAAIEGIGDTTYYADSVKGRFTISRDDAANTVLLQMNSLKPDDTAVYYCAAAFSVTIPTRARHWVYWGPGTLVTVSS
16.3
M20 (First round) (VHH) VHH: QVQLVESGGGLAQAGGSLRLSCAVSGMPEFARAMGWFRQAPGKERELVAAIEGIGATTYYADSVKGRFTISRDDAANTVLLQMNSLKPDDTAVYYCAAAFSVTIPTRARHWVDWGPGTLVTVSS
19.6
M74 (Second round) (VHH, Entry already carries A57D; G134R; R100eE); tail DDDDK-SGGRGS-HHHHHH) VHH: QVQLVESGGGLAQAGGSLRLSCAVSGMPEFARAMGWFRQAPGKERELLAAIEGIGDTTYYADSVKGRFTISRDDAANTVLLQMNSLKPDDTAVYYCAAAFSVTIPTRAEHWVDWGPGTLVTVSS
15
M45 (First round) (VHH) VHH: QVQLVESGGGLAQAGGSLRLSCAVSGMPEFARAMGWFRQAPGKERELLAAIEGIGATTYYADSVKGRFTISRDDAANTVLLQMNSLKPDDTAVYYCAAAFSVTIPTRARHWVDWGPGTLVTVSS
18.2
M68 (Second round) (VHH, Entry already carries A15P; R19T); tail DDDDK-SGGGGS-HHHHHH) VHH: QVQLVESGGGLAQPGGSLTLSCAVSGMPEFARAMGWFRQAPGKERELLAAIEGIGATTYYADSVKGRFTISRDDAANTVLLQMNSLKPDDTAVYYCAAAFSVTIPTRARHWVDWGPGTLVTVSS
15.9
WT (with tag), unmodified GH single-domain antibody molecule (VHH) VHH: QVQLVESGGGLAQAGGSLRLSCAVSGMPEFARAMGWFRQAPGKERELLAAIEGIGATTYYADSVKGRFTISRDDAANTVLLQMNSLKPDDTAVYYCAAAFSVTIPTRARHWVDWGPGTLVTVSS
22.3
M67 (Second round) (VHH, Entry already carries A15P; P105Q); tail DDDDK-SGGGGS-HHHHHH) VHH: QVQLVESGGGLAQPGGSLRLSCAVSGMPEFARAMGWFRQAPGKERELLAAIEGIGATTYYADSVKGRFTISRDDAANTVLLQMNSLKPDDTAVYYCAAAFSVTIPTRARHWVDWGQGTLVTVSS
15.9
